Values were extracted from patent US20240132589A1.

Target: T1, Human LILRB3 on transiently transfected HEK293-6E cells (human, UniProt O75022 24-631)
T1 construct: whole, on cells; also called hLILRB3
Assay: flow cytometry, transiently transfected HEK293-6E cells
assay.readout: Bmax (MFI)
Response body: numeric value in MFI, unit text excluded.

- binder: "B2H1-11 (antibody, V domains shown, Humanized variant, human IgG1 / kappa) VH: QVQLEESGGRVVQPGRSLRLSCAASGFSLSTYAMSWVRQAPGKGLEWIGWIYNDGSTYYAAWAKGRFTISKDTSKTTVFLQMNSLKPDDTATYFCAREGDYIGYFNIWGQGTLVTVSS VL: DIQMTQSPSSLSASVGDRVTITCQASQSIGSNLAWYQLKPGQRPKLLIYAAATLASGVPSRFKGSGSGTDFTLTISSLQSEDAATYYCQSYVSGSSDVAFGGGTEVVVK"
  assay.readout: "Bmax (MFI)"
  test.value: 142
- binder: "B2H1-52 (antibody, V domains shown, Humanized variant, human IgG1 / kappa) VH: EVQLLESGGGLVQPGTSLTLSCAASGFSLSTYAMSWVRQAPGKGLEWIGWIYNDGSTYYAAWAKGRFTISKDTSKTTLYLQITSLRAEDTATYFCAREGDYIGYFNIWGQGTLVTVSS VL: DVVMTQSPSSVSASLGDRVTITCQASQSIGSNLAWYQQKPGQAPKLLIYAAATLASGVPSRFKGSGSGTDFTLTITSLQPADFATYYCQSYVSGSSDVAFGGGTKVEIK"
  assay.readout: "Bmax (MFI)"
  test.value: 159
- binder: "B2H1-55 (antibody, V domains shown, Humanized variant, human IgG1 / kappa; also called humanized variant B2H1-55; humanized LILRB2 antibody B2H1-55) VH: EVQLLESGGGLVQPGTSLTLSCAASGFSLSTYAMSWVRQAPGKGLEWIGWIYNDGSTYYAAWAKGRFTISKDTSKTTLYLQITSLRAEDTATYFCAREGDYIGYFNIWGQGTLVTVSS VL: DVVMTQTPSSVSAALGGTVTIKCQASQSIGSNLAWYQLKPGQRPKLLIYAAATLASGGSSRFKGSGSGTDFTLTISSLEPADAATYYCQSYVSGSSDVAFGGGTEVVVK"
  assay.readout: "Bmax (MFI)"
  test.value: 154

Proceeding to the next binder to report its Bmax (MFI).
I'd like to know its Bmax (MFI). The binder in question is B2H1-35 (antibody, V domains shown, Humanized variant, human IgG1 / kappa) VH: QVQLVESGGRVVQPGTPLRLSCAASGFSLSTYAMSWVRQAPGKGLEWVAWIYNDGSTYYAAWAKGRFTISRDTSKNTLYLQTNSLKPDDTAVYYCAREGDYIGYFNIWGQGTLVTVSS VL: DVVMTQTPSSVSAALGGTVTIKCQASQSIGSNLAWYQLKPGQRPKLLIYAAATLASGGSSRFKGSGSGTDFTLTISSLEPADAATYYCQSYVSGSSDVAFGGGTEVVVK
146
